- Experimental Target: Kappa-type opioid receptor (Cavia porcellus, UniProt P41144)
- Sequence (P41144 whole entry): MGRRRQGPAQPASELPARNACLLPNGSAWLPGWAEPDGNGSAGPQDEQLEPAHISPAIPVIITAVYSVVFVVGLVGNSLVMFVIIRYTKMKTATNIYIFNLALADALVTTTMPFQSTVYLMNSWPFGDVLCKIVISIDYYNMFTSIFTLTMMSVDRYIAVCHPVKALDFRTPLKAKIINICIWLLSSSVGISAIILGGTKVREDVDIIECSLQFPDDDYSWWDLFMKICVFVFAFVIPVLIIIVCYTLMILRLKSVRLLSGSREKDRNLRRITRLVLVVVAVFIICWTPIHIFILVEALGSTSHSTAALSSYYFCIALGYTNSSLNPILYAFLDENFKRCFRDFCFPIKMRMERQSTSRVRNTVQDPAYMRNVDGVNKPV
- Procedure Text: Binding affinity against Opioid receptor kappa 1 from guinea pig brain membranes using [3H]U-69593
Experimental Readout: Ki (nM)

| Compound | Reading Unit | Measured Value |
| --- | --- | --- |
| Oc1ccc2c3c1O[C@H]1c4nc(-c5ccccc5)ncc4C[C@@]4(O)C(C2)N(CC2CC2)CCC314 (stereo partly drawn) | nM | 11 |
| O=C(Oc1ccc2c3c([nH]c2c1)[C@H]1Oc2c(O)ccc4c2[C@@]12CCN(CC1CC1)[C@H](C4)[C@]2(O)C3)c1ccccc1 | nM | 468 |
| CCCCC1c2c([nH]c3ccccc23)[C@H]2Oc3c(O)ccc4c3[C@@]23CCN(C)[C@H](C4)[C@H]13 (stereo partly drawn) | nM | 724 |
| O=C1CC[C@@]2(OCCCc3ccccc3)C3Cc4cccc5c4C2(CCN3CC2CC2)C1O5 (stereo partly drawn) | nM | 22.9 |
| CCN1CC[C@]23CC4Nc5ccccc5C4C[C@H]2C1Cc1ccc(OC)c(O)c13 (stereo partly drawn) | nM | 3630 |
| Oc1ccc2c3c1O[C@H]1c4nccc(-c5ccccc5)c4C[C@@]4(O)C(C2)N(CC2CC2)CCC314 (stereo partly drawn) | nM | 263 |
| CN1CCC23c4c5ccc(O)c4O[C@H]2c2ncc(-c4ccc(Cl)cc4Cl)cc2C[C@H]3C1C5 (stereo partly drawn) | nM | 407 |
| Oc1ccc2c3c1O[C@H]1c4ncc(-c5ccc(Cl)cc5)cc4C[C@@]4(O)C(C2)N(CC2CC2)CCC314 (stereo partly drawn) | nM | 20 |
